Would you kindly list IC50 for each of these compounds?
Biological target: PARP2 (Homo sapiens, UniProt Q9UGN5)
Construct: made in house
Sequence (Q9UGN5 whole entry): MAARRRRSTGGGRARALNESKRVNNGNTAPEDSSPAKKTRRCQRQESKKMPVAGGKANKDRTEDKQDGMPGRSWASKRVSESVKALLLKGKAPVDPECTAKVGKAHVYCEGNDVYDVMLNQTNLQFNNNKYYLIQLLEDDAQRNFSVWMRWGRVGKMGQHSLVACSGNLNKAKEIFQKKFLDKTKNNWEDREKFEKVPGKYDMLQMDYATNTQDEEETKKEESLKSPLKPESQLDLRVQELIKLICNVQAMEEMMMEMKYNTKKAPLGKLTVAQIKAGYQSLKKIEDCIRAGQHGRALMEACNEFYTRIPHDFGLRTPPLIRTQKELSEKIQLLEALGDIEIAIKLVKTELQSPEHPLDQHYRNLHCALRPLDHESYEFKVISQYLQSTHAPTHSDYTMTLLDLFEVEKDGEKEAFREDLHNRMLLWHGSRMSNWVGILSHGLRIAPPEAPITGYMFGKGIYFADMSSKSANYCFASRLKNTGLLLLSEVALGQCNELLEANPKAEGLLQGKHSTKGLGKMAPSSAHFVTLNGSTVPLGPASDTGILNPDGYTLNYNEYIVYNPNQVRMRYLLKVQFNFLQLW
Assay: Biochemical fluorescent polarization (FP) assay, displacement of PARPi-FL, PARP2
Type: binding
Details: 20 nM protein, 3 nM PARPi-FL, 4 h at room temperature; read-out: FP PARP2 pIC50 (converted)
Kindly answer with a numeric value in µM, unit omitted.

Endpoint output: IC50 of CCc1cc2ncc(CN3CCN(c4ccc(C#N)nc4)[C@H]4C[C@H]43)cc2[nH]c1=O (single isomer, unassigned) . Value?
6.31

Request: `N#Cc1ccc(N2CCN(Cc3cnc4cc(C(F)F)c(=O)[nH]c4c3)CC2)nc1`
1.26

Request: `Cc1nc2ccc(CN3CCN(c4ccc(C#N)cn4)CC3)cc2[nH]c1=O`
50.1

Request: `O=c1[nH]c2cc(CN3CCN(c4ccc(F)cn4)CC3)cnc2cc1C1CC1`
2.51

Request: `CCc1cc2ncc(CN3CCN(c4ccc(C#N)cc4C#N)CC3)cc2[nH]c1=O`
12.6

Request: `Cc1cc2c(F)cc(CN3CCN(c4ccc(C#N)cn4)CC3)cc2[nH]c1=O`
12.6

###

Tested on: DLD-1 BRCA2(−/−) cells
Assay: Cell growth inhibition assay (CellTiter-Glo), DLD-1 BRCA2(−/−)
Assay type: cell-based
Conditions: Homo sapiens, DLD-1, 168 h; 200 cells/well, 7 days, CellTiter Glo 2.0; read-out: DLD-1 BRCA2(−/−) pEC50 (converted)
Would you kindly list log10 of EC50 for each of these molecules?
In plain terms, each number is the log10 of measured EC50 in nM.

Endpoint output: log10 of EC50 of N#Cc1ccc(N2CCN(Cc3cnc4cc(C5CC5)c(=O)[nH]c4c3)CC2)c(F)c1 [Example 46] . Value?
0.30

Request: Cc1cc2ncc(CN3CCN(c4ccc(F)cn4)[C@H](C)C3)cc2[nH]c1=O [Example 23]
2.00

Request: Cc1cc2ncc(CN3CCN(c4cc(F)c(F)cc4C#N)CC3)cc2[nH]c1=O [Example 53]
0.80

Request: Cc1c(C(F)F)c2ncc(CN3CCN(c4ccc(C#N)cn4)CC3)cc2[nH]c1=O [Example 82]
2.00

Request: Cc1c(Cl)c(=O)[nH]c2cc(CN3CCN(c4ccc(C#N)cn4)CC3)cnc12 [Example 36]
0.10

Request: N#Cc1ccc(N2CCN(Cc3cnc4cc(C(F)F)c(=O)[nH]c4c3)CC2)c(C(F)F)c1 [Example 80]
0.10

Request: CCc1cc2ncc(CN3CCN(c4ccc(C#N)cn4)[C@H](C)C3)cc2[nH]c1=O [Example 21]
0.90

Request: CCc1nc2c(F)cc(CN3CCN(c4ccc(C#N)cn4)CC3)cc2[nH]c1=O [Example 5]
0.60

###

Test system: DLD-1 BRCA2(−/−) cells
Assay: Cell growth inhibition assay (CellTiter-Glo), DLD-1 BRCA2(−/−)
Format: cell-based
Conditions: Homo sapiens, DLD-1, 168 h; 200 cells/well, 7 days, CellTiter Glo 2.0; read-out: DLD-1 BRCA2(−/−) pEC50 (converted)
Would you kindly list EC50 for each of these compounds?
Kindly answer with a numeric value in nM, unit omitted.

Endpoint output: EC50 of CCc1cc2ncc(CN3CCN(c4ccc(C#N)nc4)[C@@H]4C[C@@H]43)cc2[nH]c1=O (single isomer, unassigned) . Value?
7.94

Request: `CCc1cc2ncc(CN3CCN(c4cnc(Cl)cc4C#N)CC3)cc2[nH]c1=O`
3.16

Request: `Cc1cc2ncc(CN3CCN(c4ccc(C#N)cn4)CC3)cc2[nH]c1=O`
2.51

Request: `N#Cc1ccc(N2CCN(Cc3cnc4cc(Cl)c(=O)[nH]c4c3)CC2)nc1`
2.51

Request: `Cc1cc2ncc(CN3CCN(c4ccc(C#N)nc4F)CC3)cc2[nH]c1=O`
3.98
